B1: CDC25A (parent)
chain: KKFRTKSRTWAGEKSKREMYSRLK

# Variants of: B1
# ASSAY_REMARKS: protein stability index of a GFP-peptide fusion (GPS, HEK-293T) (PSI 1-6); higher = more stable;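 further: lentivirally expressed fusions sorted by FACS into six bins by GFP to DsRed ratio, PSI derived from sequencing read proportions per bin multiplied by bin number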
# DETAILS: c terminus: a fixed tail appended
REPORTED_ENDPOINT: protein stability index
Reply: number alone, nothing else.

> print(dat)
   variant.key  reported.measurement
1         Y20Q                  4.34
2          R4G                   2.5
3         M19W                  2.77
4         K16N                     3
5         Y20V                  2.92

As a next step, examine the variant that follows.
So what does the record say about protein stability index for S7I ?
2.9
